Data credit: patent US20140113898A1

Molecular target: CaV3.1 (Homo sapiens)
Construct: expressed in transfected cells; host or cells: unnamed doxycycline-inducible cell line
Sequence (O43497 whole entry): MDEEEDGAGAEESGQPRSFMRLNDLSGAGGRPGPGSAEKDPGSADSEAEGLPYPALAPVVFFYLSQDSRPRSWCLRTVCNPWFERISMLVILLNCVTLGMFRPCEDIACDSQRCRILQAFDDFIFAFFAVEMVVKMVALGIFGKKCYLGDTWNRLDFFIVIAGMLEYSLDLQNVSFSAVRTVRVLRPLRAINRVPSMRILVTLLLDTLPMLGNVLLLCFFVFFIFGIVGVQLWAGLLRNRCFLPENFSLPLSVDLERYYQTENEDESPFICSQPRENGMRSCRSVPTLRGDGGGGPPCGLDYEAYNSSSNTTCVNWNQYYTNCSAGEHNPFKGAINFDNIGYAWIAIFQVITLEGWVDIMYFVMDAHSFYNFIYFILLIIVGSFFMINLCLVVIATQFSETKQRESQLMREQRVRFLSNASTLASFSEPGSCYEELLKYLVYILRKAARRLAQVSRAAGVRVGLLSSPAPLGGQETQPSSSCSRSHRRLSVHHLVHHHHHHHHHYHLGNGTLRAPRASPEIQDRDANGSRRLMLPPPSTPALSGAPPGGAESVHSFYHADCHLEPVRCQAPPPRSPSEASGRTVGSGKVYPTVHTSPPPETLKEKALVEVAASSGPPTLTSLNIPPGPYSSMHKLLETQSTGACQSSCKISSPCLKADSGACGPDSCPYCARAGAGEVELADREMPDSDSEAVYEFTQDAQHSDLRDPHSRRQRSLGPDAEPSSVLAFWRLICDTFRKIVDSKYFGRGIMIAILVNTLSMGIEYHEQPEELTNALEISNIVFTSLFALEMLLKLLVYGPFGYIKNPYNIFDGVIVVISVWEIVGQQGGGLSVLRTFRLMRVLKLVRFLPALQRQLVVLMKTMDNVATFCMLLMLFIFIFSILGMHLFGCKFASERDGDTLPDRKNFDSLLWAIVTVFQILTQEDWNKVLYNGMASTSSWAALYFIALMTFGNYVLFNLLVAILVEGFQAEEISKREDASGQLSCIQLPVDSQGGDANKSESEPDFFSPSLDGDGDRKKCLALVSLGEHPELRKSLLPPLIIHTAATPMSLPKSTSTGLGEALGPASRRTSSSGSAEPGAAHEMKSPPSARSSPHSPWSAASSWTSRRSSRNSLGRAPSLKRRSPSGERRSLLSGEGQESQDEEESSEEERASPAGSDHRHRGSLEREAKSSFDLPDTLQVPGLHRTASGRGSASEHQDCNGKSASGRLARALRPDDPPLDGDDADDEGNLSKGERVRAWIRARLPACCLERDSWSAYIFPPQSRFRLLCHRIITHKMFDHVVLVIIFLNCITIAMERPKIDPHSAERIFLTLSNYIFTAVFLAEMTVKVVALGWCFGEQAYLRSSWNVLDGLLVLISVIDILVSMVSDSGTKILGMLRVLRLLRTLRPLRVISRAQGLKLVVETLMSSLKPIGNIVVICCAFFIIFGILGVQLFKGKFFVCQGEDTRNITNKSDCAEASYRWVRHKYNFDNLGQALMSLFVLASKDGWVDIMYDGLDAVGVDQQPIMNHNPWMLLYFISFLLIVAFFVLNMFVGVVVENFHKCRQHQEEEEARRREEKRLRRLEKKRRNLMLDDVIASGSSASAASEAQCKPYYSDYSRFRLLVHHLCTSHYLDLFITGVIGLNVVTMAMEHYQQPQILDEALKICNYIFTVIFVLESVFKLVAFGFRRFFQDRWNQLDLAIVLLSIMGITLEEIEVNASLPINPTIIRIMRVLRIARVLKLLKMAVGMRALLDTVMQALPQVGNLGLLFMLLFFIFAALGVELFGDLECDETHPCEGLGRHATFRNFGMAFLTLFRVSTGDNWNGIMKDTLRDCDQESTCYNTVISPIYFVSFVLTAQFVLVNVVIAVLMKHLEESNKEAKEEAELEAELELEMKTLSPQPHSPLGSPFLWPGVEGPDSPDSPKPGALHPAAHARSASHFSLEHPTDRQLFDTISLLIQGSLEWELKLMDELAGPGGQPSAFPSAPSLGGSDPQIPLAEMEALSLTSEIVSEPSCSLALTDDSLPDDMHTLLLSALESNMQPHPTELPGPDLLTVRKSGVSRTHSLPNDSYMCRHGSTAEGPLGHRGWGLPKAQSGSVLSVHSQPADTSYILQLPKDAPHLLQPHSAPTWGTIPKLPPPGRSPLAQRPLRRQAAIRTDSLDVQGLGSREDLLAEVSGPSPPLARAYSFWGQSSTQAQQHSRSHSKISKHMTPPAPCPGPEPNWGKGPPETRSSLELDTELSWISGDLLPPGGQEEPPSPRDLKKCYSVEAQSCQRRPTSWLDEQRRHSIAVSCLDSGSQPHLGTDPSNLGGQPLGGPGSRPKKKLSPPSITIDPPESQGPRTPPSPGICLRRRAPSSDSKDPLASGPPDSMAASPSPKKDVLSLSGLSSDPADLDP
Assay: High-throughput CaV3.1 T-type FLIPR fluorescent assay
Format: cell-based
Details: Table 4; Fluo-4 FLIPR
PROPERTY MEASURED: IC50 (nM)
Answer with a number only, understood to be in nM.

input: Name the recorded IC50 for `CS(=O)(=O)c1cc(C(=O)NCc2ccc(S(=O)(=O)c3cccc(C(F)(F)F)c3)cn2)cc(C(F)(F)F)n1` .
output: 1630

input: Name the recorded IC50 for `O=C(NCc1ccc(S(=O)(=O)c2cccc(C(F)(F)F)c2)cn1)c1ccc(Cl)c(F)c1` .
output: 900

input: Name the recorded IC50 for `O=C(NCc1ccc(S(=O)(=O)c2cccc(C(F)(F)F)c2)cc1)c1ccnc(C(F)(F)F)c1` .
output: 1430

input: Name the recorded IC50 for `O=C(NCc1cccc(S(=O)(=O)c2cccc(C(F)(F)F)c2)c1)c1ccc(C(F)(F)F)nc1` .
output: 2100

====

Biological target: CaV2.2 (Homo sapiens)
Construct: expressed in transfected cells; host or cells: unnamed doxycycline-inducible cell line
Assay: High-throughput CaV2.2/Kir2.3 FLIPR fluorescent assay
Assay type: cell-based
Details: Table 5; Fluo-4 FLIPR; closed or inactivated state not stated; read-out: FLIPR data CaV2.2
This listing pairs compounds with measured pIC50.
Schema: pIC50 number; meaning minus log10 of the concentration expressed in molar units.

| COMPOUND | pIC50 |
| --- | --- |
| CC(C)(C(=O)NCc1ccc(S(=O)(=O)c2cccc(C(F)(F)F)c2)cc1)S(=O)(=O)c1cccc(C(F)(F)F)c1 [Compound 225] | 7.00 |
| CC(C)(CCNC(=O)c1cc(F)ccc1S(C)(=O)=O)S(=O)(=O)c1cccc(C(F)(F)F)c1 [Compound 194] | 5.82 |
| Cc1cc(Cl)ccc1C(=O)NCC(C)(C)S(=O)(=O)c1cccc(C(F)(F)F)c1 [Compound 168] | 5.99 |
| COc1cc(OC)cc(C(O)CNC(=O)C(C)(C)S(=O)(=O)c2cccc(C(F)(F)F)c2)c1 (stereo not drawn) [Compound 142] | 6.36 |

input: Name the recorded pIC50 for CN(CCc1c[nH]c2ccc(F)cc12)C(=O)C(C)(C)S(=O)(=O)c1cccc(C(F)(F)F)c1 [Compound 135] .
output: 5.89

input: Name the recorded pIC50 for CC(C)(CCNC(=O)[C@H]1CCCCN1)S(=O)(=O)c1cccc(C(F)(F)F)c1 [Compound 195] .
output: 5.51

====

Target: CaV2.2 (Homo sapiens)
Construct: expressed in transfected cells; host or cells: unnamed doxycycline-inducible cell line
Assay: High-throughput CaV2.2/Kir2.3 FLIPR fluorescent assay
Assay type: cell-based
Details: Table 4; Fluo-4 FLIPR; closed or inactivated state not stated; read-out: FLIPR data CaV2.2
This listing pairs compounds with measured IC50.

Study these solved cases before continuing.
| COMPOUND | TESTED TARGET | IC50 |
| --- | --- | --- |
| O=C(NCc1ccc(S(=O)(=O)c2cccc(C(F)(F)F)c2)cc1)C1CCCCN1 (stereo not shown) | CaV2.2 (Homo sapiens) | 1000 nM |
| O=C(NCc1ccc(S(=O)(=O)c2cccc(C(F)(F)F)c2)cn1)c1ccc(C(F)(F)F)nc1 | CaV2.2 (Homo sapiens) | 610 nM |
| O=C(NCc1ccc(S(=O)(=O)c2cccc(C(F)(F)F)c2)cc1)c1ccnc(C(F)(F)F)n1 | CaV2.2 (Homo sapiens) | 490 nM |

Okay, now this compound:
input: Name the recorded IC50 for `O=C(NCc1ccc(S(=O)(=O)c2cccc(C(F)(F)F)c2)cc1)[C@@H]1C[C@H](F)CN1` .
output: 4740 nM

====

Molecular target: CaV2.2 (Homo sapiens, UniProt Q00975)
Construct: expressed in transfected cells; host or cells: unnamed doxycycline-inducible cell line
Assay: High-throughput CaV2.2/Kir2.3 FLIPR fluorescent assay
Assay type: cell-based
Conditions: Table 5; Fluo-4 FLIPR; closed or inactivated state not stated; read-out: FLIPR data CaV2.2
PROPERTY MEASURED: IC50 (µM)
Answer with a number only, understood to be in µM.

Study these solved cases before continuing.
| SAMPLE SMILES | IC50 [µM] |
| --- | --- |
| CC(C)(CCNC(=O)C1(N)CCOCC1)S(=O)(=O)c1cccc(C(F)(F)F)c1 | 10 |
| CC(C)(C(=O)Nc1ccc(Oc2ccncc2)cc1)S(=O)(=O)c1cccc(C(F)(F)F)c1 | 10 |

input: Name the recorded IC50 for `CC(C)(CNC(=O)c1ccnc(N2CCCC2)c1)S(=O)(=O)c1cccc(C(F)(F)F)c1` .
output: 1.12

input: Name the recorded IC50 for `CC(C)(CCNC(=O)[C@@H]1CCCCN1)S(=O)(=O)c1cccc(C(F)(F)F)c1` .
output: 3.51

input: Name the recorded IC50 for `CC(C)(C(=O)N1CCC(c2nc3ccccc3[nH]2)CC1)S(=O)(=O)c1cccc(C(F)(F)F)c1` .
output: 1.48

input: Name the recorded IC50 for `CC(C)(CCNC(=O)c1ccc(C(F)(F)F)nc1S(C)(=O)=O)S(=O)(=O)c1cccc(C(F)(F)F)c1` .
output: 1.56

input: Name the recorded IC50 for `CC(C)(CC(=O)NCCC(F)(F)F)S(=O)(=O)c1cccc(C(F)(F)F)c1` .
output: 8.23

====

Molecular target: CaV2.2 (Homo sapiens)
Construct: expressed in transfected cells; host or cells: unnamed doxycycline-inducible cell line
Assay: High-throughput CaV2.2/Kir2.3 FLIPR fluorescent assay
Format: cell-based
Details: Table 4; Fluo-4 FLIPR; closed or inactivated state not stated; read-out: FLIPR data CaV2.2
PROPERTY MEASURED: pIC50
Schema: pIC50 number; meaning minus log10 of the concentration expressed in molar units.

input: Name the recorded pIC50 for `NC1(CC(=O)NCc2ccc(S(=O)(=O)c3cccc(C(F)(F)F)c3)cc2)CCCCC1` .
output: 6.51

====

Biological target: CaV2.2 (Homo sapiens, UniProt Q00975)
Construct: expressed in transfected cells; host or cells: unnamed doxycycline-inducible cell line
Assay: High-throughput CaV2.2/Kir2.3 FLIPR fluorescent assay
Assay type: cell-based
Details: Table 5; Fluo-4 FLIPR; closed or inactivated state not stated; read-out: FLIPR data CaV2.2
Could you mark each record YES if its IC50 falls strictly under 3 µM, and NO if it equals or exceeds it?

Study these solved cases before continuing.
| SAMPLE SMILES | DISCRETE LABEL |
| --- | --- |
| CC(C)(C(=O)NCc1ccccc1S(=O)(=O)c1cccc(C(F)(F)F)c1)S(=O)(=O)c1cccc(C(F)(F)F)c1 | YES |
| CC(C)(CCNC(=O)C1(N)CC1)S(=O)(=O)c1cccc(C(F)(F)F)c1 | NO |
| CC(C)(CNC(=O)c1ccnc(F)c1)S(=O)(=O)c1cccc(C(F)(F)F)c1 | NO |
| CNC(C)(C)C(=O)NCCC(C)(C)S(=O)(=O)c1cccc(C(F)(F)F)c1 | NO |
| CC(C)(CCNC(=O)C1(N)CCCCC1)S(=O)(=O)c1cccc(C(F)(F)F)c1 | YES |
| CO[C@H]1CN[C@@H](C(=O)NCCC(C)(C)S(=O)(=O)c2cccc(C(F)(F)F)c2)C1 | NO |

input: # strict comparison: is reported IC50 < 3 µM? input = `CC(C)(CNC(=O)c1ncc(C(F)(F)F)cc1S(C)(=O)=O)S(=O)(=O)c1cccc(C(F)(F)F)c1`
output: YES

input: # strict comparison: is reported IC50 < 3 µM? input = `CC(C)(CCNC(=O)[C@H](N)c1ccccc1)S(=O)(=O)c1cccc(C(F)(F)F)c1`
output: YES

====

Biological target: CaV3.2 (Homo sapiens)
Construct: expressed in transfected cells; host or cells: unnamed doxycycline-inducible cell line
Sequence (O95180 whole entry): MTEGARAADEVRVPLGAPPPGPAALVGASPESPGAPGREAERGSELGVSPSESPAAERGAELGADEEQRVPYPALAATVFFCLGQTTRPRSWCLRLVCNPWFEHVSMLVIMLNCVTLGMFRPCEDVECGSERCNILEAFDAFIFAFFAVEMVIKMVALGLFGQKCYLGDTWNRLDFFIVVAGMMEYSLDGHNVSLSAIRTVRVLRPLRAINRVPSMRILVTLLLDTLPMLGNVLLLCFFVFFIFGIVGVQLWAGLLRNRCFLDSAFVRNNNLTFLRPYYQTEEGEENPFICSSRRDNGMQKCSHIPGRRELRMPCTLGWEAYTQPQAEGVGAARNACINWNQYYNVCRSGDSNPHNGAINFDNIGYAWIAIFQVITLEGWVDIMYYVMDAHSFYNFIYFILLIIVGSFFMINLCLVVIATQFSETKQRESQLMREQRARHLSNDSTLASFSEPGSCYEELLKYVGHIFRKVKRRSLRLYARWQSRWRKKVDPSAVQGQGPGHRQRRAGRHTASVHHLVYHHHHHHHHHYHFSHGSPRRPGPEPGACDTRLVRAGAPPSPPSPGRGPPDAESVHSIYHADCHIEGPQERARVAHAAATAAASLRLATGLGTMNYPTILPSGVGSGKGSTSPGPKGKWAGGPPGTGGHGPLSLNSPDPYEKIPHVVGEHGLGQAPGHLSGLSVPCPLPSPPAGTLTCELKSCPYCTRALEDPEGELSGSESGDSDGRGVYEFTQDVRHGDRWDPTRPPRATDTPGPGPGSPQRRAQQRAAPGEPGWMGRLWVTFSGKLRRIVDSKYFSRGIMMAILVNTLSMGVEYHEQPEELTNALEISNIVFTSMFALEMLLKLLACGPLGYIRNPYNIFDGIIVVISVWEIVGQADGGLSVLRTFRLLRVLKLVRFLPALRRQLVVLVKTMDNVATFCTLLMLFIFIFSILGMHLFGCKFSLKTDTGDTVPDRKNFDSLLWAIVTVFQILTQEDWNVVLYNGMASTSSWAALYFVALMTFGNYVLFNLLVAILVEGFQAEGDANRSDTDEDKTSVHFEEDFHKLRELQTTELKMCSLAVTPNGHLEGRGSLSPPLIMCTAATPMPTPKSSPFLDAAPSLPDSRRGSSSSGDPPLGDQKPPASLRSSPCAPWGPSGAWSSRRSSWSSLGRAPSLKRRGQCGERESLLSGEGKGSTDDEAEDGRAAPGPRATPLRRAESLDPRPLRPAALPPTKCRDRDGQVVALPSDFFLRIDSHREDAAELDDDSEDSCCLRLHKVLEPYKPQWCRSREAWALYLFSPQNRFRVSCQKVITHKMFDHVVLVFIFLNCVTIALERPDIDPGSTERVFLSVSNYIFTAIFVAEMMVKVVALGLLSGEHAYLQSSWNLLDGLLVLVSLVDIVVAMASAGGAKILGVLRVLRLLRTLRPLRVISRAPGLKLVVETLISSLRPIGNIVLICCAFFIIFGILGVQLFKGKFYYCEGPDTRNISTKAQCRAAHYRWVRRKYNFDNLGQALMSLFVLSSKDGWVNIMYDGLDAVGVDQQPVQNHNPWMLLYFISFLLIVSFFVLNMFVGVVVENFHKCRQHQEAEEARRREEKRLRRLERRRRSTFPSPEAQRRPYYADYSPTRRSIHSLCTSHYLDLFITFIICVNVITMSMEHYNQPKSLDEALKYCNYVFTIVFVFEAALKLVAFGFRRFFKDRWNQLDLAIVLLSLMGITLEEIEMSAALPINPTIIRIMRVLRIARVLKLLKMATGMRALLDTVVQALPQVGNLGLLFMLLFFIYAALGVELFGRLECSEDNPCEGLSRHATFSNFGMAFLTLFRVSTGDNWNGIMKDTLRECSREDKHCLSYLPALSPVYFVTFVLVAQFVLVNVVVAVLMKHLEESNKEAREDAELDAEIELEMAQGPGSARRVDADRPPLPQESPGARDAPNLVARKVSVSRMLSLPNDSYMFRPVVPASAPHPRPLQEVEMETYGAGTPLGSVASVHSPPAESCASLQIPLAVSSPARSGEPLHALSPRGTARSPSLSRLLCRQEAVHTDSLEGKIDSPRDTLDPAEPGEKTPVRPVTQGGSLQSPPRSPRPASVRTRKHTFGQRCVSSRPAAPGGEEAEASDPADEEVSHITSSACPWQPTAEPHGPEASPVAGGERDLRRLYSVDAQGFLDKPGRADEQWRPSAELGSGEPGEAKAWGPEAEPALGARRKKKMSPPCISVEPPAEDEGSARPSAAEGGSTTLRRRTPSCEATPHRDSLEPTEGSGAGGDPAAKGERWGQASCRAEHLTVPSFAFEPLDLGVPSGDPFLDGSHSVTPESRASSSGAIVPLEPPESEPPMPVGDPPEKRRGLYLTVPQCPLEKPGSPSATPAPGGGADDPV
Assay: High-throughput CaV3.2/Kir2.3 T-type FLIPR fluorescent assay
Type: cell-based
Conditions: Table 4; Fluo-4 FLIPR; closed or inactivated state not stated
PROPERTY MEASURED: IC50 (nM)
Answer with a number only, understood to be in nM.

Study these solved cases before continuing.
| SAMPLE SMILES | IC50 (nM) |
| --- | --- |
| O=C(NCc1cccc(S(=O)(=O)c2cccc(C(F)(F)F)c2)c1)c1ccc(Cl)c(F)c1 | 940 |
| CS(=O)(=O)c1cc(C(F)(F)F)cnc1C(=O)NCc1ccc(S(=O)(=O)c2cccc(C(F)(F)F)c2)cc1 | 2370 |

Okay, now this molecule:
input: Name the recorded IC50 for `O=C(NCc1ccc(S(=O)(=O)c2cccc(C(F)(F)F)c2)cc1)[C@H]1CCCCN1` .
output: 8700

====

Target: CaV2.2 (Homo sapiens)
Construct: expressed in transfected cells; host or cells: unnamed doxycycline-inducible cell line
Assay: High-throughput CaV2.2/Kir2.3 FLIPR fluorescent assay
Format: cell-based
Conditions: Table 5; Fluo-4 FLIPR; closed or inactivated state not stated; read-out: FLIPR data CaV2.2
# binning rule on IC50: label 0 = under 1 µM, label 1 = from 1 µM up to 2 µM, label 2 = 2 µM and over

Study these solved cases before continuing.
| SAMPLE SMILES | DISCRETE LABEL |
| --- | --- |
| CC(C)(C(=O)NCc1cccc(C(F)(F)F)c1)S(=O)(=O)c1cccc(C(F)(F)F)c1 | label 0 |
| CC(C)(C(=O)N1CCC(c2cccc(Cl)c2)CC1)S(=O)(=O)c1cccc(C(F)(F)F)c1 | label 1 |
| CC(C)(CCNC(=O)[C@@H]1CCCN1)S(=O)(=O)c1cccc(C(F)(F)F)c1 | label 2 |

Let's switch to this compound now.
input: Which IC50 category applies to `CC(C)(C(=O)N1CCC(c2ccc(C(F)(F)F)cc2)CC1)S(=O)(=O)c1cccc(C(F)(F)F)c1` here?
output: label 0
